Biological target: T1, mouse CD47 (mouse, UniProt Q61735 19-303)
T1 construct: whole, on cells; also called CD47 on mouse RBCs; CD47 on 4T1 cells
T1 sequence (looked up): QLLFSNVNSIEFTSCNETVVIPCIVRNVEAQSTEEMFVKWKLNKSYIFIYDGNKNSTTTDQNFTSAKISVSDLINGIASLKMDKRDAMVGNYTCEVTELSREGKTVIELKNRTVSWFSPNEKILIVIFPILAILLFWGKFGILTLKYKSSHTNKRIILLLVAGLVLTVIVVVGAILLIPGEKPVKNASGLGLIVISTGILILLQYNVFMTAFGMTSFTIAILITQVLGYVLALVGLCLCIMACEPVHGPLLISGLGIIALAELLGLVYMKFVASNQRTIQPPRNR
Assay: flow cytometry on RBCs, CHO supernatant 10 ng/ml
property_measured: mean fluorescence relative to chimeric antibody (ratio)
Provide the reading as a plain figure in ratio.

[in] State its mean fluorescence relative to chimeric antibody: Clone 24 (pVxK7b-037-hum24-LC / pVxK7b-037-hum24-HC) (antibody, human IgG1, kappa, V domains shown, also called Cl 24) VH: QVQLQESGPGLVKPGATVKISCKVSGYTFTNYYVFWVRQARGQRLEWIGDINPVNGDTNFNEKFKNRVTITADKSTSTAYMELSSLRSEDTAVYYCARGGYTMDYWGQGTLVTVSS VL: AIQLTQSPSSLSASVGDRVTITCRSSQSLVHSNGNTYLHWYQQKPGQAPRLLIYKVSYRFSGVPSRFSGSGSGTEFTLTISSLQPDDFATYYCSQNTHVPRTFGQGTKVEIKR
[out] 0.7

[in] State its mean fluorescence relative to chimeric antibody: Clone 16 (pVxK7b-037-hum16-LC / pVxK7b-037-hum16-HC) (antibody, human IgG1, kappa, V domains shown) VH: QVQLQESGPGLVKPSQTLSLTCTVSGYTFTNYYVFWVRQARGQRLEWIGDINPVNGDTNFNEKFKNRVTISADKSISTAYLQWSSLKASDTAMYYCARGGYTMDYWGQGTLVTVSS VL: AIQLTQSPSSLSASVGDRVTITCRSSQSLVHSNGNTYLHWYQQKPGQAPRLLIYKVSYRFSGVPDRFSGSGSGTDFTLKISRVEAEDVGVYYCSQNTHVPRTFGQGTKVEIKR
[out] 1
